Test system: strain 19
Test method notes: MIC determination, broth microdilution (CLSI)
Type: cell-based
Listing: MIC of selected molecules
Measured parameter: MIC

Structure smiles string	Result
C[C@H]1[C@H](NC(=O)/C(=N\OCCOc2ccc(C(=N)N)cn2)c2csc(N)n2)C(=O)N1S(=O)(=O)O	0.25 µg/mL
Cc1cc(OCCO/N=C(\C(=O)N[C@@H]2C(=O)N(OS(=O)(=O)O)C2(C)C)c2csc(N)n2)ccc1C(=N)N	0.5 µg/mL
C[C@H]1[C@H](NC(=O)/C(=N\OCCOc2cnc(C(=N)N)cn2)c2csc(N)n2)C(=O)N1S(=O)(=O)O	0.25 µg/mL

----------
Tested on: Bacteria
Test method notes: MIC determination in combination with β-lactamase inhibitors (constant 4 μg/mL)
Assay type: cell-based
Particulars: strain 19; E. coli J62-TEM-3 + 4 μg/mL clavulanic acid
Measured parameter: MIC strain 19 (E. coli J62-TEM-3 + 4 μg/mL clavulanic acid)

Structure smiles string	Result
CC1(C)[C@H](NC(=O)/C(=N\OCCOc2ccc(C(=N)NCC(=O)O)cc2)c2csc(N)n2)C(=O)N1OS(=O)(=O)O	0.5 µg/mL
CC1(C)[C@H](NC(=O)/C(=N\O[C@@H](COc2ccc(C(=N)NC(CN)CN)cc2)C(=O)O)c2csc(N)n2)C(=O)N1OS(=O)(=O)O	≦0.063 mg/L
CC1(C)[C@H](NC(=O)/C(=N\O[C@@H](COc2ccc(C(=N)NC3CNC3)cc2)C(=O)O)c2csc(N)n2)C(=O)N1OS(=O)(=O)O	≦0.063 mg/L
CC1(C)[C@H](NC(=O)/C(=N\O[C@@H](COc2ccc(C(=N)N[C@@H]3CCCNC3)cc2)C(=O)O)c2csc(N)n2)C(=O)N1OS(=O)(=O)O	≦0.063 mg/L
CC1(C)[C@H](NC(=O)/C(=N\O[C@@H](COc2ccc(C(=N)N[C@@H]3CCNC3)cc2)C(=O)O)c2csc(N)n2)C(=O)N1OS(=O)(=O)O	≦0.063 mg/L
CC1(C)[C@H](NC(=O)/C(=N\O[C@@H](COc2ccc(C(=N)NCCNc3ncccn3)cc2)C(=O)O)c2csc(N)n2)C(=O)N1OS(=O)(=O)O	0.5 µg/mL

----------
Test system: P. aeruginosa 2297-con (AmpC derepressed)
Test method notes: MIC determination, broth microdilution (CLSI)
Format: cell-based
Particulars: Pseudomonas aeruginosa, read-out: strain 8 MIC, strain 8
Listing: MIC of selected molecules

Molecule	MIC / µg/mL
CC1(C)[C@H](NC(=O)/C(=N\OCCSc2ccc(C(=N)N)cc2)c2csc(N)n2)C(=O)N1OS(=O)(=O)O [Example 7]	8
CC1(C)[C@H](NC(=O)/C(=N\O[C@@H](COc2ccc(C(=N)N[C@@H]3CCCNC3)cc2)C(=O)O)c2csc(N)n2)C(=O)N1OS(=O)(=O)O [Example 88]	1
C[C@H]1[C@H](NC(=O)/C(=N\OCCOc2ccc(C(=N)N)cc2N)c2csc(N)n2)C(=O)N1S(=O)(=O)O [Example 35]	32
CC1(C)[C@H](NC(=O)/C(=N\O[C@@H](COc2ccc(C(=N)NCC3CCCN3)cc2)C(=O)O)c2csc(N)n2)C(=O)N1OS(=O)(=O)O (stereo partly drawn) [Example 98]	2
CC1(C)[C@H](NC(=O)/C(=N\OCCOc2ccc(C(=N)NC3CCNCC3)cc2)c2csc(N)n2)C(=O)N1OS(=O)(=O)O [Example 23]	2
CC1(C)[C@H](NC(=O)/C(=N\OCCOc2ccc(C(=N)NCCCN)cc2)c2csc(N)n2)C(=O)N1OS(=O)(=O)O [Example 83]	4
C[C@H]1[C@H](NC(=O)/C(=N\OCCOc2ccc(C(=N)N)cc2Br)c2csc(N)n2)C(=O)N1S(=O)(=O)O [Example 49]	32
CC1(C)[C@H](NC(=O)/C(=N\OCCOc2ccc(C3=NCC(N)CN3)cc2)c2csc(N)n2)C(=O)N1OS(=O)(=O)O (stereo partly drawn) [Example 86]	8
CC1(C)[C@H](NC(=O)/C(=N\OCCOc2ccc(C(=N)N[C@H](CN)CO)cc2)c2csc(N)n2)C(=O)N1OS(=O)(=O)O [Example 85]	8
C[C@H]1[C@H](NC(=O)/C(=N\OCCOc2ccc(C(=N)N)cc2)c2csc(N)n2)C(=O)N1S(=O)(=O)O [Example 9]	16
C[C@H]1[C@H](NC(=O)/C(=N\OCCOc2nc(C(=N)N)cs2)c2csc(N)n2)C(=O)N1S(=O)(=O)O [Example 31]	32
CC1(C)[C@H](NC(=O)/C(=N\OCCOc2ccc(C(=N)NCCN)nc2)c2csc(N)n2)C(=O)N1OS(=O)(=O)O [Example 82]	8
CC1(C)[C@H](NC(=O)/C(=N\OCCOc2ccc(C(=N)NC(CN)CN)cc2)c2csc(N)n2)C(=O)N1OS(=O)(=O)O [Example 84]	2
CC1(C)[C@H](NC(=O)/C(=N\O[C@@H](COc2ccc(C(=N)NC(CN)CN)cc2)C(=O)O)c2csc(N)n2)C(=O)N1OS(=O)(=O)O [Example 102]	2
CC(=N)N1CC[C@H](NC(=N)c2ccc(OCCO/N=C(\C(=O)N[C@@H]3C(=O)N(OS(=O)(=O)O)C3(C)C)c3csc(N)n3)cc2)C1 [Example 43]	8
C[C@H]1[C@H](NC(=O)/C(=N\OCCNc2ccc(C(=N)N)cc2)c2csc(N)n2)C(=O)N1S(=O)(=O)O [Example 8]	32
C[C@H]1[C@H](NC(=O)/C(=N\OCCCOc2ccc(NC(=N)N)cc2)c2csc(N)n2)C(=O)N1S(=O)(=O)O [Example 51]	32
CC1(C)[C@H](NC(=O)/C(=N\OCCOc2ccc(C(=N)N)nc2)c2csc(N)n2)C(=O)N1OS(=O)(=O)O [Example 4]	8
C[C@H]1[C@H](NC(=O)/C(=N\OCCOc2ccc(C(=N)N)nn2)c2csc(N)n2)C(=O)N1S(=O)(=O)O [Example 28]	32
CC1(C)[C@H](NC(=O)/C(=N\OCCOc2ccc(C3=NCCN3)cc2)c2csc(N)n2)C(=O)N1OS(=O)(=O)O [Example 25]	4
CC1(C)[C@H](NC(=O)/C(=N\OC(COc2ccc(C(=N)N)cc2)C(N)=O)c2csc(N)n2)C(=O)N1OS(=O)(=O)O (stereo partly drawn) [Example 75]	8

----------
Tested on: E. coli ATCC25922
Test method notes: MIC determination, broth microdilution (CLSI)
Format: cell-based
Particulars: Escherichia coli, ATCC25922, strain 1
Listing: log10 MIC of selected compounds
Measured parameter: log10 MIC (log10 of the value in µg/mL)

Compound	log10 MIC
C[C@H]1[C@H](NC(=O)/C(=N\OCCCOc2ccc(C(=N)N)cc2)c2csc(N)n2)C(=O)N1S(=O)(=O)O	0.30
C[C@H]1[C@H](NC(=O)/C(=N\OCCOc2ccc(C(=N)N)nc2)c2csc(N)n2)C(=O)N1S(=O)(=O)O	-0.90
CC1(C)[C@H](NC(=O)/C(=N\OCCOc2ccc(C(=N)N)nc2)c2csc(N)n2)C(=O)N1OS(=O)(=O)O	-0.90
CC1(C)[C@H](NC(=O)/C(=N\OCCOc2ccc(C(=N)NCCNC(=N)N)cc2)c2csc(N)n2)C(=O)N1OS(=O)(=O)O	-0.60
CC1(C)[C@H](NC(=O)/C(=N\O[C@H](COc2ccc(C(=N)NC(CN)CN)cc2)C(=O)O)c2csc(N)n2)C(=O)N1OS(=O)(=O)O	0.30
CC1(C)[C@H](NC(=O)/C(=N\O[C@@H](COc2ccc(C(=N)NCC3CCCN3)cc2)C(=O)O)c2csc(N)n2)C(=O)N1OS(=O)(=O)O (stereo partly drawn)	-0.90
C[C@H]1[C@H](NC(=O)/C(=N\OCCOc2ccc(C(=N)N)cc2)c2csc(N)n2)C(=O)N1OCS(=O)(=O)O	-0.30
CC1(C)[C@H](NC(=O)/C(=N\O[C@@H](COc2ccc(C(=N)NC3CNCC3N)cc2)C(=O)O)c2csc(N)n2)C(=O)N1OS(=O)(=O)O (stereo partly drawn)	-0.90
Cc1sc(C(=N)N)nc1OCCO/N=C(\C(=O)N[C@@H]1C(=O)N(OS(=O)(=O)O)C1(C)C)c1csc(N)n1	0.00

----------
Test system: M. catarrhalis ICB489
Test method notes: MIC determination, broth microdilution (CLSI)
Format: cell-based
Particulars: Moraxella catarrhalis, ICB489, strain 12
Listing: MIC of selected molecules
Measured parameter: MIC (mg/L)

Molecule	Relational operator	Numeric result
C[C@H]1[C@H](NC(=O)/C(=N\OCCOc2ccc(C(=N)NO)cc2)c2csc(N)n2)C(=O)N1S(=O)(=O)O [Example 21]	=	0.25
C[C@H]1[C@H](NC(=O)/C(=N\OCCOc2ccc(C(=N)N)nc2)c2csc(N)n2)C(=O)N1S(=O)(=O)O [Example 3]	=	0.125
CC1(C)[C@H](NC(=O)/C(=N\OCCOc2ccc(C(=N)NCCN)cc2)c2csc(N)n2)C(=O)N1OS(=O)(=O)O [Example 24]	≤	0.063
C[C@H]1[C@H](NC(=O)/C(=N\OCCOc2ccc(C(=N)N)cn2)c2csc(N)n2)C(=O)N1S(=O)(=O)O [Example 5]	=	0.25
CC1(C)[C@H](NC(=O)/C(=N\OCCOc2ccc(C(=N)NCCNC=N)cc2)c2csc(N)n2)C(=O)N1OS(=O)(=O)O [Example 38]	≤	0.063
